Origin of measurements: patent US9023767B2

- target_desc: UniProt:P49768
- assay_summary: HTRF γ-secretase assay with Sb4 substrate
- Assay type: biochemical
endpoint_label: IC50
Put down the number, then write its unit next to it.

Query :: Fill in: IC50 of CC(NC(=O)Cc1cc(F)cc(F)c1)C(=O)NC1N=C(c2ccccc2)c2ccccc2N(C)C1=O (stereo not shown) is ___
Result :: 1.1 nM

* * *

- target_desc: UniProt:P49768
- assay_summary: Extended exo-cell γ-secretase assay, HeLa cells
- Type: cell-based
- experimental_context: 24 hrs pretreatment; read-out: Extended Exo-Cell (nM), IC50
endpoint_label: IC50 (nM)
One number for each entry, in nM.

Query :: Fill in: IC50 of CC(NC(=O)Cc1cc(F)cc(F)c1)C(=O)NC1N=C(c2ccccc2)c2ccccc2N(C)C1=O (stereo not shown) is ___
Result :: 2.8
